# TEST TARGET: hRIPK1 (aa 1-375) fusion protein (Homo sapiens, UniProt Q13546)
# Construct: hRIPK1 (aa 1-375) fusion protein
# Sequence (Q13546 1-375): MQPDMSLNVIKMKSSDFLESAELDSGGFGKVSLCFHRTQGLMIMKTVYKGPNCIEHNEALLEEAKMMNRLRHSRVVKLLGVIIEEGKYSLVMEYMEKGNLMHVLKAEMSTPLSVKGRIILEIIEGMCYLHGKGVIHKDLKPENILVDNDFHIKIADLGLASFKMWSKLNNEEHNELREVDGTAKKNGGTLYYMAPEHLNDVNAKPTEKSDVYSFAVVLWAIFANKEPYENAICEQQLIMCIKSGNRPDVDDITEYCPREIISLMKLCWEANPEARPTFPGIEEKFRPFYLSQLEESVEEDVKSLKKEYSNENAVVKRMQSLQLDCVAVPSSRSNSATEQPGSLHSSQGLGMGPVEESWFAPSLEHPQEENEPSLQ
# ASSAY TEXT: ADP-Glo kinase assay: catalytic activity of RIPK1 (autophosphorylation, conversion of ATP to ADP)
QUANTITY NAME: pIC50
Quick note: pIC50 means taking -log10 of the concentration in moles per liter.

These solved cases illustrate the format of a correct answer.
# MOLECULE, pIC50
measured = [
    ("Cc1ccc([C@@H]2CCON2C(=O)[C@H]2CC[C@H](Cc3cnc(C)nc3)CC2)cn1 [compound 344]", 6.61),
    ("Cc1ccc(C[C@H]2CC[C@H](C(=O)N3OCC[C@H]3c3cc(F)cc(F)c3)CC2)nn1 [compound 304]", 7.64),
    ("Cc1cc2nnc(C)n2cc1C[C@H]1CC[C@H](C(=O)N2OCC[C@H]2c2cccc(F)c2)CC1 [compound 317]", 8.15),
    ("O=C([C@H]1CC[C@H](Cc2ccc(C3(O)COC3)cc2)CC1)N1OCC[C@H]1c1cnccn1 [compound 352]", 7.52),
    ("Cc1nc2ccc(C[C@H]3CC[C@H](C(=O)N4OCC[C@H]4c4cncc(C#N)c4)CC3)cn2n1 [compound 262]", 7.47),
    ("Cc1cc([C@@H]2CCON2C(=O)[C@H]2CC[C@H](Cn3cc4c(F)cc(C#N)cc4n3)CC2)co1 [compound 42]", 7.41),
]

Problem: Please give the measured pIC50 for this molecule: O=C([C@H]1CC[C@H](Cc2ccc3ncnn3c2)CC1)N1OCC[C@H]1c1cncc(F)c1 [compound 338]
Solution: 7.54
